Test system: A*2601 (Homo sapiens, UniProt P04439, A114D/A173T/A270S/D101N/D185E/E277Q/E87N/F33Y/G231S/I121R/I218V/K168Q/L180W/L300P/L318F/P208A/P217A/Q86R/Q94H/R138Q/S129P/T187R/T323A/T345S/V100A/V358M)
Test protocol: biochemical
Assay type: binding
No end group written: not given here.
Readout type: pIC50
Kindly note that pIC50 refers to -log10 of the concentration in mol/L and answer with the value alone.

Illustrative cases are given below, each with its answer.
>>> observed_result("ITDDSEIAY [Peptide 1593.04]")
5.13
>>> observed_result("GLDDQLIHLY [Peptide 9018.0024]")
5.85
>>> observed_result("NSDVKHHMY [Peptide 9018.0010]")
5.05
>>> observed_result("DTADQLIHLY [Peptide 9018.0021]")
8.49

Now examine the next entry.
Qu. // returns reported pIC50 for input RQEILDLWVY [Peptide 9015.0174]
Ans. 5.06

* * *

Test system: DRB3*0101 (Homo sapiens, UniProt P01903+P79483)
Test protocol: biochemical
Format: binding
pIC50: −log10 of the molar value. No end group written: not given here.
Readout type: pIC50

>>> observed_result("LCVNSTASDLRTIQQ [Peptide 1543.15]")
"< 4.70"

Qu. Fill in the blank: the reported pIC50 of FLDVVTIPNSVQISV [Peptide 1601.40] is ____.
Ans. 4.75

Qu. Next sequence up: DICNTMHYTNWTHIY [Peptide 1601.04]
Ans. 5.14

* * *

Test system: DRB1*0301 (Homo sapiens, UniProt P01903+P01911, A100K/A102G/A103R/A169T/F55Y/I96L/K41T/L162R/M171V/P40S/Q125H/Q178H/Q39Y/R42S/S66N/T106N/T262R/W38E/Y61H)
Sequence (P01903 26-254 limits assumed, other chains not shown): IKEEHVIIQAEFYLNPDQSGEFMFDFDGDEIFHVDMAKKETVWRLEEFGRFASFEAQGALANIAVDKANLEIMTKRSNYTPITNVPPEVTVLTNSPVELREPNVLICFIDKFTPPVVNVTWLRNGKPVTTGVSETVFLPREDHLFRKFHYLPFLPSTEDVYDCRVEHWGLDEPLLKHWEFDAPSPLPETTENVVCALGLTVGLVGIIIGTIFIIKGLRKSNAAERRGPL
Test protocol: biochemical
Assay type: binding
pIC50: −log10 of the molar value. No end group written: not given here.
Classify by measured pIC50: true if it is equal to or exceeds 6, false if it is smaller.

Qu. Item RGIIILLLIRFRCSK [Peptide 89.0063] with pIC50 of 6 or above?
Ans. false

Qu. Input GERLEVDTELSPRLQ [Peptide 90.0048]
Ans. true

Qu. Thanks! And RFHNIMGRWTGRCSE [Peptide 1543.60] ?
Ans. false

Qu. Now the same for ESDMAFEYALLADSN [Peptide 90.0055]
Ans. true

* * *

Test system: A*6802 (Homo sapiens, UniProt P04439, A269V/D140Y/D185E/E176V/E277Q/E87N/F33Y/G231S/I121R/I166T/I218V/L180W/L300P/L318F/N151K/P208A/P217A/Q86R/R138H/R169H/S129P/T345S/V36M)
Test protocol: biochemical
The reader will find reported pIC50 values listed item by item below.
The quantity pIC50 is defined as the negative base-10 logarithm of the molar concentration.

The cases that follow already have their pIC50 on record.
>>> observed_result("CSCC[C@H](NC(=O)[C@H](C)N)C(=O)N[C@@H](CS)C(=O)N[C@@H](CCCNC(=N)N)C(=O)N[C@@H](Cc1c[nH]c2ccccc12)C(=O)NCC(=O)N[C@@H](CC(C)C)C(=O)N[C@@H](CC(C)C)C(=O)N[C@H](C(=O)O)C(C)C [Peptide 1334.07]")
5.41
>>> observed_result("CC[C@H](C)[C@H](NC(=O)CNC(=O)[C@@H](NC(=O)[C@@H](NC(=O)[C@H](C)NC(=O)CN)[C@@H](C)O)C(C)C)C(=O)N[C@@H](CCSC)C(=O)N[C@H](C(=O)NCC(=O)N[C@H](C(=O)N[C@H](C(=O)O)C(C)C)C(C)C)[C@@H](C)CC [Peptide 9013.0342]")
6.17

Qu. // returns reported pIC50 for input CC[C@H](C)[C@H](NC(=O)[C@@H](NC(=O)[C@@H](NC(=O)[C@@H](NC(=O)[C@@H](NC(=O)[C@@H](NC(=O)[C@@H](N)CCCNC(=N)N)[C@@H](C)O)[C@@H](C)O)C(C)C)[C@@H](C)O)[C@@H](C)O)C(=O)N[C@H](C(=O)N[C@H](C(=O)N[C@@H](Cc1ccc(O)cc1)C(=O)N[C@H](C(=O)O)C(C)C)C(C)C)[C@@H](C)O [Peptide 9013.0304]
Ans. 9.74

* * *

Each item that follows carries a reported log10 IC50.
Test system: DRB1*0405 (Homo sapiens, UniProt P01903+P01911, A100R/A169T/D86S/F76Y/I96L/K127E/L162R/M171V/N62H/P40V/Q125Y/R42H/S133A/S149N/S66Y/V115G/V209L/W38E)
Test protocol: biochemical
Type: binding
No end group written: not given here.
All values: base-10 log of IC50 in µM.

Completed entries (count: 5):
>>> observed_result("FKYFKEDAAKYSKTQ [Peptide 90.0206]")
0.84
>>> observed_result("DSDIAYYYAQLADSN [Peptide 89.0071]")
0.78
>>> observed_result("CSAIEVQIALESLST [Peptide 90.0018]")
0.52
>>> observed_result("DWCVAAFGVTGTVAE [Peptide 89.0042]")
-0.74
>>> observed_result("YRHYQYSLYGKTLEE [Peptide 1543.58]")
-1.60

Qu. // log10 IC50 lookup, key: GQVIVCPTSISSNQI [Peptide 89.0185]
Ans. 0.88

Qu. Consider next the sequence TPEWIDRLTVLQHSF [Peptide 89.0069] in the same way.
Ans. -0.01

Qu. Subsequent entry: LKTVKIPNTVQVIQG [Peptide 90.0017]
Ans. 1.28

Qu. One more sequence: KNCILIHGAPNTGKS [Peptide 89.0055]
Ans. 0.59

Qu. # repeat for PEWIDRLTVLQHSFN [Peptide 89.0070]
Ans. -1.10

Qu. Same read-out for GEIYIIEEDTCTMVT [Peptide 90.0202] ?
Ans. 0.91

Qu. For LVQLKCPPLLLTSNT [Peptide 89.0077] then?
Ans. 0.54

Qu. Follow-up entry: TNCMLIQPPKLRSTA [89,0046]
Ans. 0.51

Qu. Lookup ESDMAFQYAQLADCN [Peptide 89.0085]
Ans. 1.29

Qu. Next entry: DPRWPYLHSRLVVFH [Peptide 89.0113]
Ans. 0.79

Qu. And what about the sequence TTPIIHKLGDRNSLK [Peptide 1601.17] ?
Ans. 1.28

Qu. Next entry: HWKLIRMECAIMYTA [Peptide 90.0021]
Ans. -1.08

* * *

Test system: DRB1*1201 (Homo sapiens, UniProt P01903+P01911, A100R/A169T/D57E/D86V/F55L/H45Y/K41T/L162R/M171V/P40S/Q125H/Q178H/Q39Y/Q99D/R42G/S66L/T262R/V114A/V67L/W38E/Y59H/Y61H/Y89S)
Test protocol: biochemical
Assay type: binding
No end group written: not given here.
Readout type: pIC50
Give only the number. pIC50 is defined as minus log10 of concentration in molar units.

Study these solved cases before continuing.
>>> observed_result("KIGMLDDATVPCWNY [Peptide 90.0040]")
4.90
>>> observed_result("RGIIILLLIRFRCSK [Peptide 89.0063]")
5.70
>>> observed_result("LSHVKIPVVYRLVWD [Peptide 90.0020]")
7.00
>>> observed_result("QERPRKLPQLCTELQ [Peptide 1543.22]")
4.93
>>> observed_result("TNKFSGYPLYHSVYE [Peptide 68.0116]")
5.35
>>> observed_result("DWVMAIFGVNPTVAE [Peptide 89.0079]")
6.37

From here, focus on the item given below.
Qu. What does the record list as pIC50 for GAAVVHEIVRSFGTL [Peptide 68.0173] ?
Ans. 6.29

* * *

Test system: A*3301 (Homo sapiens, UniProt P04439, A270S/D185E/E176V/E277Q/E87N/F33T/G231S/H175R/I121M/I218V/I322F/K168Q/K210R/L300P/L318F/M331R/P217A/Q86R/Q94H/R138Q/T323A/T345S/T97I/V358M/Y195H)
Test protocol: biochemical
Type: binding
No end group written: not given here.
Measured IC50 values are reported for all entries that follow.
Form entry: value (nM) — number only.

>>> observed_result("SFFSRTWSR [Peptide 1587.16]")
0.59

Qu. For IVFIEYRKIR [Peptide 9017.0245] , what is its reported IC50?
Ans. 312

Qu. Thanks! And AFTDLTIVYR [Peptide 78.0052] ?
Ans. 817

Qu. Let us now turn to FTAFLVAFK [Peptide 88.0389]
Ans. 76
